- ASSAY METHOD TEXT: antimalarial activity against Dd2 strain (AID 2302);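 further: 0% = DMSO untreated growth and 100% = chloroquine plus artemisinin killed control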
- ASSAY CONDITIONS: P. falciparum Dd2 in RBCs, LDH growth readout, 72 h; at 2 µM; active compounds read high
Kindly return Criterion met if reported growth inhibition is no lower than 50%; return Criterion not met if it is lower.

• Nc1nc2c(c(=O)[nH]1)CN(S(=O)(=O)c1ccc(C(=O)N[C@@H](CCC(=O)O)C(=O)O)cc1)CC2 = Criterion met
• Nc1c(Cl)cc(C(O)CNCCCCCOCCc2ccccc2)cc1C(F)(F)F (centres undefined) = Criterion met
• CN1c2ccccc2Sc2cc(CNCCSCCNCc3ccc4c(c3)Sc3ccccc3N4C)ccc21 = Criterion not met
• O=C(Nc1cccc(-c2cccc(-c3nc4ccccc4[nH]3)c2)c1)c1ccncc1 = Criterion not met
• CN(C)C(=NCCCCCCN=C(/N=C(/N)Nc1ccc(Cl)cc1)N(C)C)/N=C(/N)Nc1ccc(Cl)cc1 = Criterion met

Now consider the entry below.
[in] Is growth inhibition at least 50%? Consider N#Cc1ccc(CN2CCC(Oc3ccc(NC(=O)c4cccs4)cc3Cl)CC2)cc1
[out] Criterion met

----------
- ASSAY METHOD TEXT: antimalarial activity against Dd2 strain (AID 2302);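 further: 0% = DMSO untreated growth and 100% = chloroquine plus artemisinin killed control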
- ASSAY CONDITIONS: P. falciparum Dd2 in RBCs, LDH growth readout, 72 h; at 2 µM; active compounds read high
Kindly return yes if reported growth inhibition is no lower than 30%; return no if it is lower.

* COc1ccc(OCC(O)CN(Cc2ccccc2OC)C(=O)Nc2ccc(Br)cc2)cc1 (centres undefined) | no

[in] Is growth inhibition at least 30%? Consider CC(C)Sc1nc2c(c(=O)n1CCc1ccccc1)C1(CCCC1)Cc1ccccc1-2
[out] yes

[in] Is growth inhibition at least 30%? Consider CCNc1cc(C(=O)N[C@@H](Cc2ccccc2)[C@H](O)CNCC(C)C)cc(N2CCCC2=O)c1
[out] yes

[in] Is growth inhibition at least 30%? Consider Cc1cc(OCCCN2CCC(NS(=O)(=O)c3cccc(Br)c3)CC2)c2ccccc2n1
[out] no

[in] Is growth inhibition at least 30%? Consider CCNc1cc(C(=O)N[C@@H](Cc2ccccc2)[C@H](O)CNC2(CC(C)C)CC2)cc(N2CCCCS2(=O)=O)c1
[out] no

[in] Is growth inhibition at least 30%? Consider O=S(=O)(NC1CCCCN(Cc2ccccc2O)C1)c1ccc(C(F)(F)F)cc1 (centres undefined)
[out] yes

[in] Is growth inhibition at least 30%? Consider COCCNCc1ccc(-c2ccc3c(Nc4ccc(F)cc4Cl)ccnc3c2)o1
[out] yes

[in] Is growth inhibition at least 30%? Consider O=C(Nc1cc(F)cc(F)c1)NC1CCN(CCCCCNC(=O)[C@@H]2C[C@H]2c2ccc(Cl)c(Cl)c2)CC1
[out] no

[in] Is growth inhibition at least 30%? Consider O=C(/C=C/c1ccc(Cl)c(Cl)c1)NCCCCCN1CCCN(C(=S)Nc2ccc(Cl)cc2)CC1
[out] no

----------
- ASSAY METHOD TEXT: inhibition of 3D7 malaria parasite growth – strain 3D7 (AID 2306);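 further: 0% = DMSO wells and 100% = chloroquine plus artemisinin control wells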
- ASSAY CONDITIONS: P. falciparum 3D7 erythrocytic growth, LDH absorbance, 72 h; at 2 µM; active compounds read high
Entries annotated with measured growth inhibition
Could you give me the number in %? Just the number is fine.

# example entries with known answers
* CN1CCN(Cc2nc(-c3ccc4c(Nc5ccc(Oc6ccccc6)cc5)ccnc4c3)cs2)CC1 | 100
* CCc1cn2c3c(cc(C(=O)N[C@@H](Cc4cccc(Cl)c4)[C@H](O)CNC4CCCCC4)cc13)N(C)S(=O)(=O)CC2 | 97
* O=C(NOCCCCOc1ccc(Cl)c(Cl)c1)c1ccccc1 | 98
* c1ccc(CCNCc2ccc(-c3cccc(-c4nc5ccccc5[nH]4)c3)cc2)nc1 | 100
* Cc1ccnc2nc(C(=O)Nc3cc(Cl)ccc3N3CCOCC3)nn12 | 84

For record O=C(/C=C/c1ccc(Cl)c(Cl)c1)NCCCCCN1CCC(NC(=S)Nc2cccc(Cl)c2)CC1 the listed growth inhibition is 99

For record Cc1cc(CN2C(=O)C(c3ccccc3)(c3ccccc3)N=C2N)c(C(F)(F)F)o1 the listed growth inhibition is 97

For record Cc1nnsc1C(=O)Nc1cccc(-c2ccc(-c3nc4ccc(C(F)(F)F)cc4[nH]3)cc2)c1 the listed growth inhibition is 99

----------
Entries annotated with measured growth inhibition
- ASSAY METHOD TEXT: inhibition of 3D7 malaria parasite growth – strain 3D7 (AID 2306);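 further: 0% = DMSO wells and 100% = chloroquine plus artemisinin control wells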
- ASSAY CONDITIONS: P. falciparum 3D7 erythrocytic growth, LDH absorbance, 72 h; at 2 µM; active compounds read high
Could you give me the number in %? Just the number is fine.

# example entries with known answers
- COc1ccc(C(=O)N2CCC(CN3CCOC(c4ccccc4)(c4ccccc4)C3)CC2)cc1: 95
- Fc1ccc2nc(-c3ccc(-c4ccc(CNCCN5CCNCC5)cc4)cc3)[nH]c2c1: 96
- COc1ccc(Nc2ncc3c(-c4cccc(NC(=O)c5ccc(N)cc5)c4)c[nH]c3n2)cc1OC: 84

For record CCOC(=O)C(CO)NC(=O)c1ccc([N+](=O)[O-])o1 (centres undefined) the listed growth inhibition is 96

For record OCCN1CCN(C(=S)Nc2ccccc2)CC1 the listed growth inhibition is 97

For record Cn1ncc2c3c(CCN4CCC(NCc5ccc6c(c5)NC(=O)CO6)CC4)c(Cl)cnc3ccc21 the listed growth inhibition is 101

For record CCN(CC)CCCC(C)Nc1cc(C=Cc2ccc([N+](=O)[O-])cc2)nc2ccc(OC)cc12 (centres undefined) the listed growth inhibition is 100

For record COc1cccc(CNc2ncc(-c3ccsc3)c(-c3nccs3)n2)c1 the listed growth inhibition is 89

For record O=C(CC1CCCCC1)NCC(NCCCNc1cc(=O)c2ccccc2[nH]1)c1cc(Br)cc(Br)c1 (centres undefined) the listed growth inhibition is 95

For record CCc1ccc(S(=O)(=O)Nc2cccc(CCN3CCC(N4CCCCC4)CC3)c2)cc1 the listed growth inhibition is 101

For record CCn1c(Sc2ccc(C#N)c([N+](=O)[O-])c2)nnc1-c1cccc(Cl)c1 the listed growth inhibition is 95

For record COc1ccc(CNC2CCN(C)CC2)cc1-c1ccc(S(=O)(=O)NCc2ccccc2)c(C)c1 the listed growth inhibition is 100

For record CCOc1cc(C)ccc1C1CCN(CCCCNC(=O)c2coc(-c3ccc(Cl)cc3)c2)CC1 the listed growth inhibition is 92

For record Cc1cc(Nc2cccc(C#N)c2)nc(Nc2ccccc2C)n1 the listed growth inhibition is 95

For record COc1ccc(C(=O)CCC(=O)N(Cc2ccc(-c3ccc(CNCc4cccnc4)cn3)cc2)C2CCN(Cc3ccccc3)CC2)cc1F the listed growth inhibition is 94

For record O=C(COC(=O)c1cccc(S(=O)(=O)N2CCc3ccccc32)c1)NNC(=O)c1cccs1 the listed growth inhibition is 96

For record CC(CCON1C(N)=NC(N)=NC1(C)C)c1ccc(Cl)c(Cl)c1 (centres undefined) the listed growth inhibition is 98

For record COc1ccc2nccc([C@@H](O)CN3CCC(NCc4cc5ccccc5[nH]c4=O)CC3)c2c1 the listed growth inhibition is 97

For record COc1cc(NC(=O)Nc2ccc([N+](=O)[O-])cc2OC)c(OC)cc1Cl the listed growth inhibition is 87

For record O=C1OC2(CCN(C(=O)c3ccc(-n4cnnn4)cc3)CC2)CN1Cc1ccc(Cl)c(Cl)c1 the listed growth inhibition is 97

For record O=C(NCc1ccc(F)cc1)c1cc(Br)cc(N2CCN(c3ccncc3)CC2)c1 the listed growth inhibition is 80

For record COc1ccc(CCNc2nc(NCCc3cnc[nH]3)nc(NCc3cccc4ccccc34)n2)cc1OC the listed growth inhibition is 98

For record Nc1nc(N)c2cc(C(F)(F)F)ccc2n1 the listed growth inhibition is 80

For record Nc1nccc2ccc(-c3ccc(OCc4ccccc4)cc3)cc12 the listed growth inhibition is 101

----------
- ASSAY METHOD TEXT: human hepatoma cell viability loss – ATP luminescence, cytotoxicity control for P. falciparum antimalarial project, primary screen (AID 2303);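 further: 0% = DMSO wells and 100% = digitonin-killed cells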
- ASSAY CONDITIONS: HepG2 viability, 24-48 h, at 10 µM, active compounds read high
Entries annotated with measured inhibition
Could you give me the number in %? Just the number is fine.

# example entries with known answers
• O=C(Nc1ccc2nc(-c3ccccc3)[nH]c2c1)c1cc(-c2ccc3c(c2)OCCO3)n[nH]1 = 58
• Oc1ccc(Nc2ccnc3cc(Cl)ccc23)cc1 = 0
• Cc1cc(N2CCCC2)nc(Nc2ccc(NC(=O)c3ccccc3C)cc2)n1 = 22

For record COC(=O)c1ccc2[nH]cc(C3CCN(CCC4CCN(C(=O)/C=C/c5ccc(Cl)c(Cl)c5)CC4)CC3)c2c1 the listed inhibition is 24

For record Cc1ccc(N(CCC(=N)N)Cc2ccccc2)cc1 the listed inhibition is 6

For record O=C(CC1CCCCC1)NCC(NCCCNc1cc(=O)c2ccccc2[nH]1)c1cc(Br)cc(Br)c1 (centres undefined) the listed inhibition is 8

For record O=C(NCCCCN1CCC(c2ccc3c(c2OCc2ccccn2)CCCC3)CC1)c1ccc(NC(=O)c2ccc(Cl)cc2)cc1 the listed inhibition is 31

For record Cc1ccc(C2CCN(CCCCNC(=O)c3ccc(-c4ccc(C(F)(F)F)cc4)cc3)CC2)c(O)c1 the listed inhibition is 92

For record COc1ccc(-c2cccc(NC(=O)c3ccc(Cl)cc3)c2)cc1CN1CCNCC1 the listed inhibition is 52
